So I've got a bunch of compounds here, and I need their IC50 values.
# measuredTarget: Bile salt export pump (Homo sapiens, UniProt O95342)
# Sequence (O95342 whole entry): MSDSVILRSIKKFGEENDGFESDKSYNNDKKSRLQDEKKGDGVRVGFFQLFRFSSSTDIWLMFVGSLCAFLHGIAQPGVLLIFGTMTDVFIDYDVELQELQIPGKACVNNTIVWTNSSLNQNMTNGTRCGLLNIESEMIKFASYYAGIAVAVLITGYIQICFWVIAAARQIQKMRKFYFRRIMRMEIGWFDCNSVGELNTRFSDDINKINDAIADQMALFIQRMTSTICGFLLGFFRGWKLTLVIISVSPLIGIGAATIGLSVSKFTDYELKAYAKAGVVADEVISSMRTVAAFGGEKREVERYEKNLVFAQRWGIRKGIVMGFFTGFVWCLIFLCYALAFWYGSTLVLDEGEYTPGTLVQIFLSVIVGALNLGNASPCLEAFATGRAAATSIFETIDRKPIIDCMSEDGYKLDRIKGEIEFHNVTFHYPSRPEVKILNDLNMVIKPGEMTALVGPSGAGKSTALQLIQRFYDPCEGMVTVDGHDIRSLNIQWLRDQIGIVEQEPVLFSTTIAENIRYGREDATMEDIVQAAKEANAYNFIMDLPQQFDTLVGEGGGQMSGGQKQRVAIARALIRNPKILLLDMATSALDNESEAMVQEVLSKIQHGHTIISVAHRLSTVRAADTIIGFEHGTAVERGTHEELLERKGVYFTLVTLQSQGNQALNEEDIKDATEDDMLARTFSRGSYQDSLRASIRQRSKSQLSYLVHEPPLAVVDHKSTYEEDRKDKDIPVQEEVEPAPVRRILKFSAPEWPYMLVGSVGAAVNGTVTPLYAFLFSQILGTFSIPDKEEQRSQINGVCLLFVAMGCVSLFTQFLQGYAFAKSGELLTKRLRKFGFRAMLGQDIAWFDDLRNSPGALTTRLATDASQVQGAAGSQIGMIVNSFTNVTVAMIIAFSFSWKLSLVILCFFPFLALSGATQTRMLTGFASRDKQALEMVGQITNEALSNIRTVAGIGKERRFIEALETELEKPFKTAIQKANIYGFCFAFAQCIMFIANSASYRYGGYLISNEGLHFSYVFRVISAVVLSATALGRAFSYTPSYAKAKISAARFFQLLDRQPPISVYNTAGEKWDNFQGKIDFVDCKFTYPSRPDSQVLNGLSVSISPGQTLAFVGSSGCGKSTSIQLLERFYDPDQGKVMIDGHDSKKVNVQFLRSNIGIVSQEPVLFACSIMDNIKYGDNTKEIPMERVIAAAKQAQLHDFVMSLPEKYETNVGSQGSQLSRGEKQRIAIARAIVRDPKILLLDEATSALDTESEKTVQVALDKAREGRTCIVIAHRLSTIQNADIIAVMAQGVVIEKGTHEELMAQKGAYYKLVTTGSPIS
# methodSummary: Inhibition of BSEP in cryopreserved sandwich-cultured human hepatocytes by measuring reduction in TCA biliary clearance using taurocholic acid as substrate
Answers are plain numbers, in µM.

Below, 3 compounds whose answers are already recorded.
>>> print(df.to_string())
                                   compound                            measuredtarget  unitslabel  readoutnumber
0  Cc1nc(-c2onc(C)c2NC(=O)O[C@H](C)c2ccccc2Cl)ccc1NC(=O)[C@H]1CCCC[C@@H]1C(=O)O  Bile salt export pump (Homo sapiens, UniProt O95342)          µM           39.8
1  Cc1noc(-c2ccc(NC(=O)[C@H]3CCCC[C@@H]3C(=O)O)cn2)c1NC(=O)O[C@H](C)c1ccccc1Cl  Bile salt export pump (Homo sapiens, UniProt O95342)          µM           50.1
2  Cc1nc(-c2onc(C)c2NC(=O)O[C@H](C)c2ccccc2)ccc1NC(=O)[C@H]1CCCC[C@@H]1C(=O)O  Bile salt export pump (Homo sapiens, UniProt O95342)          µM            100

The value of IC50 measured for the compound Cc1noc(-c2ccc(-c3ccc(C4(C(=O)O)CC4)cc3)cc2)c1NC(=O)O[C@H](C)c1ccccc1 [BMS-986020] turned out to be 2
